System: Thyroid gland
Test: Biodistribution in ICR mouse thyroid at 5 to 10 uCi, iv after 1 hr
Format: ADME, organism-based
Details: in vivo
Hi there, I'd appreciate the recorded Drug uptake for every entry that follows.
Give bare numbers, in % ID/g.

Query smiles | Tested system | Unit spec | Drug uptake
CNc1ccc(-c2cn(-c3ccc([125I])cc3)nn2)cc1 | Thyroid gland | % ID/g | 54.2
CN(C)c1ccc(-c2cn(-c3ccc(OCCC[18F])cc3)nn2)cc1 | Thyroid gland | % ID/g | 16.87
CN(C)c1ccc(-c2cn(-c3ccc(OCC[18F])cc3)nn2)cc1 | Thyroid gland | % ID/g | 3.25

Read the next record carefully.
QUERY: Field request: Drug uptake | item: CN(C)c1ccc(-c2cn(-c3ccc([125I])cc3)nn2)cc1
RESULT: 17
